These measurements were taken from the domain aggregation screens of Martell et al. (2025).

Below is a list of entries, each paired with its recorded soluble fraction (log2) value.
Assay: soluble fraction after stress (log2 fold change); higher = more stays soluble; pooled small domains, quantitative proteomics
Settings: stress: 50 degC
property_measured: soluble fraction (log2)

> print(dat)
                                        seq        property.measured  experimental.result
1  HMDDPTVILFDPKNGQRKIVKWKAGLTLYSARRSAGISSAAEATIQRAGKSLSGRTATALEPGDVIRW  soluble fraction (log2)               -0.953
2  HMADQIIEGILGKEGGYVNNPNDKGGPTRWGITQTTARAYGYSGDMKALPRDTAKAIYLSQYWT  soluble fraction (log2)               -0.183
3  HMSIYYQIYESLKKDLSNNLYKPGEKLPSENVLSKRFGVNRHTIRRSLQLLKNEGILFSKRGSGIIVHD  soluble fraction (log2)                -2.32
4  HMVVTRVKAIDVVNIRKSDSETADKLGKAAVGDEFDLLEKKGNGWSKISYEGGEAYIKSEFLEPSE  soluble fraction (log2)                0.145
